- Target Or Test System: Pangolin CoV GD1 RBD (Pangolin coronavirus Guangdong, isolate …, strain)
- Assay: BLI
- Experimental Setup: both partners purified

Binder | koff / s⁻¹
H16 (antibody, V domains shown, human IgG1) VH: QLQLQESGPGLVKPSETLSLTCTVSGGSISSSSYYWGWIRQPPGKGLEWIGSIYYSGSTYYNPSLKSRVTISVDTSKNQFSLKLSSVTAADTAVYYCARREWLRGPFDYWGQGTLVTVSS VL: NFMLTQPHSVSESPGKTVTISCTRSSGSIASNYVQWYQQRPGSSPTTVIYEDNQRPSGVPDRFSGSIDSSSNSASLTISGLKTEDEADYYCQSYDSSNVVFGGGTKLTVL | 0.0254
